assay_target: RPS6KB2 (human) (UniProt Q9UBS0)
Sequence (Q9UBS0 whole entry, looked up): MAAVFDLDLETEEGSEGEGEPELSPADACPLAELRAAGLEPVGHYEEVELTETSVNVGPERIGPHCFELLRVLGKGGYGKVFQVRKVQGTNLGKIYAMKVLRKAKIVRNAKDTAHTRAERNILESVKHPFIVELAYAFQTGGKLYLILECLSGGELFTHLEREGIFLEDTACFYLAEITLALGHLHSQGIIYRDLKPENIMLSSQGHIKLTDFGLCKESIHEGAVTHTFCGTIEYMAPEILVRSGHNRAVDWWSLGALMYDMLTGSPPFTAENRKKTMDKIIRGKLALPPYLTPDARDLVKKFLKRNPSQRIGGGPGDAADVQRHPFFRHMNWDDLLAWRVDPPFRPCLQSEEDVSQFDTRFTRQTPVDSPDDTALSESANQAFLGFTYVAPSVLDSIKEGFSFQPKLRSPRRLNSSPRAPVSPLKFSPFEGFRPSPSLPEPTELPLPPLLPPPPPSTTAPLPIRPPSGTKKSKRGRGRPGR
assay_notes: radiometric filter-binding kinase assay, Kinase HotSpot
run_conditions: compound 0.5 µM; ATP 10 µM
outcome_measure: residual activity (%)
Dear colleague, please return just the value in %, with no unit written.

Field: example entries. Status: answers known.
COc1cc2ncnc(Nc3ccc(O)c(Br)c3)c2cc1OC
102
O=c1[nH]c2ccccc2n1C1CCN(Cc2ccc(-c3nc4cc5[nH]cnc5cc4nc3-c3ccccc3)cc2)CC1
102
O=C(O)c1ccc2c3c1cccc3c(=O)n1c3ccccc3nc21
98
COc1cc2c(cc1OC)-c1[nH]nc(Nc3cccc(F)c3)c1C2
100

Attention now shifts to the item below.
Request: Quickly give me recorded residual activity for `FC(F)(F)c1ccc(/C=C/c2nc(COc3ccc(CCCCn4ccnn4)cc3)co2)cc1`
Response: 103

* * *

assay_target: PRKCA (human) (UniProt P17252)
assay_notes: radiometric filter-binding kinase assay, Kinase HotSpot
run_conditions: compound 0.5 µM; ATP 10 µM
outcome_measure: residual activity (%)
Dear colleague, please return just the value in %, with no unit written.

Field: example entries. Status: answers known.
COc1cccc(-c2cc(=O)c3ccccc3o2)c1N
102
CCCCc1c(-c2ccc(O)cc2)[nH]c2nccnc12
83.7
O=c1[nH]c2ccccc2n1C1CCN(Cc2ccc(-c3nc4cc5[nH]cnc5cc4nc3-c3ccccc3)cc2)CC1
84.3

Attention now shifts to the item below.
Request: Recall the reported residual activity of `CCOc1cc2ncnc(Nc3cccc(Br)c3)c2cc1OCC` on PRKCA (human) (UniProt P17252) and write it down.
Response: 85.3

* * *

Here the recorded residual activity is given for each entry.
assay_target: GRK7 (human) (UniProt Q8WTQ7)
Sequence (Q8WTQ7 whole entry, looked up): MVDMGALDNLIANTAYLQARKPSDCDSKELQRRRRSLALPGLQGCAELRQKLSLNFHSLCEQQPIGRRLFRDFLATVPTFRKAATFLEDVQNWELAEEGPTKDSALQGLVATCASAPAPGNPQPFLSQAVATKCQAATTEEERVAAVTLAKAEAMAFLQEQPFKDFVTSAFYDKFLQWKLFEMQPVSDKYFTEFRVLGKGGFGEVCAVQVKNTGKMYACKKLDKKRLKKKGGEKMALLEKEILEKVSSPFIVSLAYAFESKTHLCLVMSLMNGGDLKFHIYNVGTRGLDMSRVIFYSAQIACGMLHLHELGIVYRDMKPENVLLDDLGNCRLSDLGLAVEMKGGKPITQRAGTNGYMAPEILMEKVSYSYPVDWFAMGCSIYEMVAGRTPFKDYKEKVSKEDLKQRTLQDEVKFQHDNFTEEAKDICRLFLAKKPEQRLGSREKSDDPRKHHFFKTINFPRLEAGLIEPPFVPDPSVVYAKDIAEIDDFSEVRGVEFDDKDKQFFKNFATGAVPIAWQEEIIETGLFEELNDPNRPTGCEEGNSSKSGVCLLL
assay_notes: radiometric filter-binding kinase assay, Kinase HotSpot
run_conditions: compound 0.5 µM; ATP 10 µM
Dear colleague, please return just the value in %, with no unit written.

Nc1ncnc2c1cnn2-c1ccccc1
100
c1ccc(-c2cnc(Nc3ccc(OCCN4CCCC4)cc3)s2)cc1
90.2
COc1cc2c(cc1OC)-c1[nH]nc(Nc3cccc(F)c3)c1C2
101

Request: Recall the reported residual activity of `N#C/C(=C1/Nc2ccccc2S1)c1ccnc(NCCc2cccnc2)n1` on GRK7 (human) (UniProt Q8WTQ7) and write it down.
Response: 113

Request: Recall the reported residual activity of `O=c1c2ccccc2[nH]c(=S)n1CCN1CCC(=C(c2ccc(F)cc2)c2ccc(F)cc2)CC1` on GRK7 (human) (UniProt Q8WTQ7) and write it down.
Response: 111

* * *

assay_target: PRKD3 (human)
assay_notes: radiometric filter-binding kinase assay, Kinase HotSpot
run_conditions: compound 0.5 µM; ATP 10 µM
Here the recorded residual activity is given for each entry.
Dear colleague, please return just the value in %, with no unit written.

COc1cc2c(Nc3ccc(Br)cc3F)ncnc2cc1OCC1CCN(C)CC1
91.7
O=C(O)c1ccc2c3c1cccc3c(=O)n1c3ccccc3nc21
82.2
Nc1ncnc2c1cnn2-c1ccccc1
87.3

Request: Quickly give me recorded residual activity for `CCCCc1c(-c2ccc(O)cc2)[nH]c2nccnc12`
Response: 67.4

Request: Quickly give me recorded residual activity for `COc1cccc(-c2cc(=O)c3ccccc3o2)c1N`
Response: 94.3

Request: Quickly give me recorded residual activity for `CCc1nc(-c2ccc(OC)cc2)[nH]c1-c1ccncc1`
Response: 97.1

Recorded values, source the kinase profiling compilation of Christmann-Franck et al. (2016).
